- targetEntity: FGFR1 (Homo sapiens (Human), UniProt P11362)
- Sequence (P11362 22-822): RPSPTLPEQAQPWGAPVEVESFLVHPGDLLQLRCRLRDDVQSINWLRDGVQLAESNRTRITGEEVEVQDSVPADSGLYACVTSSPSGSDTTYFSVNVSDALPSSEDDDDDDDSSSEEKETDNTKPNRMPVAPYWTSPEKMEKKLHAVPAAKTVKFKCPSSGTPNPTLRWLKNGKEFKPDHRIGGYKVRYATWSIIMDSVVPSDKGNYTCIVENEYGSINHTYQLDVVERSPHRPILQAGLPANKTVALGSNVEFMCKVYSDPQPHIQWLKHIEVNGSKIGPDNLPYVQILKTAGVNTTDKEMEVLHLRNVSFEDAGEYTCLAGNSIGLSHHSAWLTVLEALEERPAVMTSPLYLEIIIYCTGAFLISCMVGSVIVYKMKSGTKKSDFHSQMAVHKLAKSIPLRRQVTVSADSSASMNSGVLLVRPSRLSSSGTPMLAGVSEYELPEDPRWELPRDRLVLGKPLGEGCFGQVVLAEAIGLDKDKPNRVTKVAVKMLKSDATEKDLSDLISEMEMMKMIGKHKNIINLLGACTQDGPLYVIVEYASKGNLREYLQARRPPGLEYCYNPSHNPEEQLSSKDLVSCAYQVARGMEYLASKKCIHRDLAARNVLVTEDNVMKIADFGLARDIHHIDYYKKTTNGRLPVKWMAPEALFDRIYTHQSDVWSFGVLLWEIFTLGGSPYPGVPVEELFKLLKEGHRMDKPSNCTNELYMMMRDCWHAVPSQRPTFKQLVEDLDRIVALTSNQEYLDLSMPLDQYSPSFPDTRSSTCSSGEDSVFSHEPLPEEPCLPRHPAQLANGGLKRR
- assayProtocol: FGFR Enzymatic Assay (FRET peptide phosphorylation), FGFR1
- measurementParameters: FGFR1 IC50 (nM), pre-incubated for 4 hours
reportedProperty: IC50

Ask: Dear colleague, I am looking for the recorded IC50 of the following compound: CCN1C(=O)N(c2c(F)c(OC)cc(OC)c2F)Cc2cnc(-c3cn(Cc4cccnc4)nc3C)cc21 [Example 50]
Reply: 30 to 200 nM

Ask: Please look up its IC50: COc1cc(OC)c(F)c(N2Cc3cnc(-c4cn(C)nc4C)cc3N(c3cncc(C)n3)C2=O)c1F [Example 87]
Reply: 30 to 200 nM

Ask: Item under review: COc1ccc(CN2C(=O)N(c3c(F)c(OC)cc(OC)c3F)Cc3cnc(-c4cn(C)nc4C)cc32)cn1 [Example 59] . Reported IC50?
Reply: 30 to 200 nM

Ask: Suppose we examine the compound COc1cc(OC)c(F)c(N2Cc3cnc(-c4csc(N(C)C)n4)cc3C3(CC3)C2=O)c1F [Example 160] ; what IC50 value has been reported?
Reply: 10 to 30 nM

###

Kindly state pIC50 for each of the entries shown.
- targetEntity: UniProtKB P22607
- Sequence (P22607 23-806): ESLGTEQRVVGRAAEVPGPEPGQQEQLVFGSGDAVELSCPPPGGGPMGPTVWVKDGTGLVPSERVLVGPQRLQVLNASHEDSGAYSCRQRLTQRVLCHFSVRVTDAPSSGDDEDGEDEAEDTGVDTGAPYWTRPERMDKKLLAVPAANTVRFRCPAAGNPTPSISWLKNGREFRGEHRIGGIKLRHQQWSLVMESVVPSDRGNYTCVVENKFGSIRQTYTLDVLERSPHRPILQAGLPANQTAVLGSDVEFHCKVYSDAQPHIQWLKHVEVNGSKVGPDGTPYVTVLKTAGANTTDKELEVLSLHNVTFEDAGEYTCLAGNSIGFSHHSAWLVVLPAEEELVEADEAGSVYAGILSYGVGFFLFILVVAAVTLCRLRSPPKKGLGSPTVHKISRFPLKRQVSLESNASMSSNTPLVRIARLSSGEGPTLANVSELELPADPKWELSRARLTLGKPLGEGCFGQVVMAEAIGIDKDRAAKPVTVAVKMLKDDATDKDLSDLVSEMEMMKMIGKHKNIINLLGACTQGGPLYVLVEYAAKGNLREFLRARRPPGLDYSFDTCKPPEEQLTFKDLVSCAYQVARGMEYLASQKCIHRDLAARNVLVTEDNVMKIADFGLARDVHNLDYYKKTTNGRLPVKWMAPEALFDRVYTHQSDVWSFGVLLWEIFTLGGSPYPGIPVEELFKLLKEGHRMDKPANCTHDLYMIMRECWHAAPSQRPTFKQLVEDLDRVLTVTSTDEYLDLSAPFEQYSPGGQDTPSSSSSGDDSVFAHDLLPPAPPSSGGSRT
- assayProtocol: FGFR Enzymatic Assay (FRET peptide phosphorylation), FGFR3
- Type: biochemical
- measurementParameters: pre-incubated for 4 hours; read-out: FGFR3 IC50
pIC50: −log10 of the molar value.

Ask: Find pIC50 (UniProtKB P22607) for the entry COc1cc(OC)c(F)c(N2Cc3cnc(-c4cnn(C5(CC#N)CN(C(C)=O)C5)c4)cc3C3(CC3)C2=O)c1F [Example 56]
Reply: 6.70 to 7.52

Ask: # query: pIC50 | item COc1cc(OC)c(F)c(N2Cc3cnc(-c4cn(C)nc4C)cc3N(CCc3cnn(C)c3)C2=O)c1F [Example 114] | system: UniProtKB P22607
Reply: 7.52 to 8.00

Ask: Request body: readout pIC50, system UniProtKB P22607, query COc1cc(OC)c(F)c(N2Cc3cnc(-c4cn(C)nc4C)cc3N(c3ccnnc3)C2=O)c1F [Example 57] . Return the value.
Reply: 7.52 to 8.00

Ask: Please provide the recorded pIC50 for COc1cc(OC)c(F)c(N2Cc3cnc(-c4cn(C)nc4C)cc3N(c3ccc(F)c(C#N)c3)C2=O)c1F [Example 66] , tested on UniProtKB P22607.
Reply: 7.52 to 8.00

###

- targetEntity: FGFR2 (Homo sapiens (Human), UniProt P21802)
- Sequence (P21802 22-821): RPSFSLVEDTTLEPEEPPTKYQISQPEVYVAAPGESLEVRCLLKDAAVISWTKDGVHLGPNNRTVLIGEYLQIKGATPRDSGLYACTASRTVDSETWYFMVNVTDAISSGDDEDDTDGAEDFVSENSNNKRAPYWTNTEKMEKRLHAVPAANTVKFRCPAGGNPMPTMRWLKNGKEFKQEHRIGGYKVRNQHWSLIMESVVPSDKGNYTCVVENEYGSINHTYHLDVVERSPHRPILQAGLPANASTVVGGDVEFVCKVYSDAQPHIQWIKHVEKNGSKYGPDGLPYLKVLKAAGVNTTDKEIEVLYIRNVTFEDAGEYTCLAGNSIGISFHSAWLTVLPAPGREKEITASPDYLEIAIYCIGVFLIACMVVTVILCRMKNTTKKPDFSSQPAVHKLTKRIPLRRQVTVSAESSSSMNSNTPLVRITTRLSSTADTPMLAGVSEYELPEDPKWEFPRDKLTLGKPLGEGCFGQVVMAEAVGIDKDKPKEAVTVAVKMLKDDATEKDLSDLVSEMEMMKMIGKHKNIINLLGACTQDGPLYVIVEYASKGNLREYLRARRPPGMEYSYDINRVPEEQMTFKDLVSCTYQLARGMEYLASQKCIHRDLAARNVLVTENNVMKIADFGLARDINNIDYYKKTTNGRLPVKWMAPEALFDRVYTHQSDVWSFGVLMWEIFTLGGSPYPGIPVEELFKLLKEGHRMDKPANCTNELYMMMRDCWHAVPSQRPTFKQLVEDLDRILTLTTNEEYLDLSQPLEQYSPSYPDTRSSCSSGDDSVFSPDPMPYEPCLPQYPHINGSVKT
- assayProtocol: FGFR Enzymatic Assay (FRET peptide phosphorylation), FGFR2
- Format: biochemical
- measurementParameters: pre-incubated for 4 hours
reportedProperty: IC50

Ask: For the molecule COc1cc(OC)c(F)c(N2Cc3cnc(-c4cn(C)nc4C)cc3N(Cc3csc(C)n3)C2=O)c1F [Example 95] , what IC50 is on record?
Reply: < 10 nM

Ask: Data request, read-out IC50, for COc1cc(OC)c(F)c(N2Cc3cnc(-c4ccc(C#N)nc4)cc3C3(CC3)C2=O)c1F [Example 20]
Reply: 10 to 30 nM

Ask: What value of IC50 has been reported for the following molecule? COc1cc(OC)c(F)c(N2Cc3cnc(-c4cn(C)nc4C)cc3N(c3ccc(-n4cccn4)cc3)C2=O)c1F [Example 77]
Reply: < 10 nM
